System: Bst 2.0 DNA polymerase
Test: Homopolymer assays of nucleotide analogs (Example 10)
Assay type: biochemical
Settings: Natural Nucleotide T (TTP = 1); template oligo 332, primer 221L
Measured Relative Rate in Homopolymer Assay accompanies every entry in the list below.

O=c1[nH]c(=O)n([C@H]2C[C@H](O)[C@@H](COP(=O)(O)OP(=O)(O)OP(=O)(O)O)O2)cc1Br [5-Bromo-dUTP, 5-bromo-2′-deoxyuridine 5′triphosphate]	>1
O=c1[nH]c(=O)n([C@H]2C[C@H](O)[C@@H](COP(=O)(O)OP(=O)(O)OP(=O)(O)O)O2)cc1I [5-Iodo-dUTP, 5-iodo-2′-deoxyuridine 5′triphosphate]	>1
CC#Cc1cn([C@H]2C[C@H](O)[C@@H](COP(=O)(O)OP(=O)(O)OP(=O)(O)O)O2)c(=O)[nH]c1=O [P-dUTP]	>1
C#CCNc1cn([C@H]2C[C@H](O)[C@@H](COP(=O)(O)OP(=O)(O)OP(=O)(O)O)O2)c(=O)[nH]c1=O [5-Propargylamino-dUTP]	<<1
O=c1[nH]c(=O)n([C@H]2C[C@H](O)[C@@H](COP(=O)(O)OP(=O)(O)OP(=O)(O)O)O2)cc1F [5-Fluoro-dUTP, 5-fluoro-2′-deoxyuridine 5′triphosphate]	<1

Q: Fill in reported Relative Rate in Homopolymer Assay for this entry: Cc1cn([C@H]2C[C@H](O)[C@@H](COP(=O)(O)OP(=O)(O)OP(=O)(O)O)O2)c(=O)[nH]c1=O [TTP, thymidine triphosphate, reference compound]
A: 1
